Here the recorded TGI is given for each entry.
Tested on: OVCAR-4 ovarian
Assay Text: NCI tumour cell line growth inhibition, 48 h

CCOC(=O)c1c(C)n(CC(C)C)c2c1cc1oc(=O)c(=O)n3cnc2c13 = > 50 µM
CCOC(=O)N1C/C(=C/c2ccc(OC)cc2)C(=O)/C(=C/c2ccc(OC)cc2)C1 = > 31 µM
Fc1ccc(F)c(C2SCc3nc4ccccc4n32)c1 (stereo unspecified) = > 100 µM
CCOC(=O)C1=C(NC(C)(C)C)OCC1=O = > 100 µM
O=C(c1cc(Br)ccc1O)c1cc(Br)ccc1O = 30.2 µM

## Task Recorded TGI for `O=C(O)c1ccc(N=Nc2cc(S(=O)(=O)O)c3cccnc3c2O)cc1` , please?
## Result > 100 µM

## Task Recorded TGI for CCCC(=O)NC(c1ccc2c(c1)OCO2)c1ccc2cccnc2c1O (stereo unspecified) , please?
## Result 6.02 µM

## Task Recorded TGI for `CCN(Cc1nc2cc(C(F)(F)F)ccc2nc1-c1ccccc1)c1ccc(OC)c(OC)c1` , please?
## Result > 100 µM

## Task Recorded TGI for `CCc1ccccc1-n1c2nc(=O)n(C)c(=O)c-2nc2ccccc21` , please?
## Result 18.2 µM

## Task Recorded TGI for `Cc1ccccc1-n1c(/C=C\c2ccccn2)nc2ccccc2c1=O` , please?
## Result > 100 µM

## Task Recorded TGI for `CCCCSC1=N/C(=C\c2ccco2)C(=O)N1` , please?
## Result > 100 µM

---

Tested on: MDA-MB-231 breast
Assay Text: NCI tumour cell line growth inhibition, 48 h
Here the recorded TGI is given for each entry.

COc1ccc(OC)c(-c2cc(-c3ccccc3)nn2-c2ccc(S(N)(=O)=O)cc2)c1 = 27 µM
O=C1C(Cl)=C(Nc2cccc(C(F)(F)F)c2)C(=O)N1Cc1ccccc1Cl = 17.4 µM
Cc1ccc(C2SCc3nc4ccc(C(=O)c5ccccc5)cc4n32)cc1 (stereo not drawn) = 19.4 µM

## Task Recorded TGI for `O=c1oc2ccccc2cc1-c1nnc(-c2ccccc2)s1` , please?
## Result 46.3 µM

---

System: SNB-75 CNS
Assay Text: NCI tumour cell line growth inhibition, 48 h
Here the recorded GI50 is given for each entry.

O=C1C(Cl)=C(Nc2cccc(C(F)(F)F)c2)C(=O)N1Cc1ccccc1Cl = 996 nM
COc1ccc(NC(=O)c2sc3nc(C)c(C(O)c4ccc(OC)cc4)cc3c2N)cc1 (stereo not given) = 815 nM
Cc1ccc(C2SCc3nc4ccc(C(=O)c5ccccc5)cc4n32)cc1 (stereo not given) = 23300 nM
COc1ccccc1CNC(=O)C1c2ccccc2C(=O)N(CC(C)C)C1c1cccs1 (stereo not given) = 18100 nM
Cc1[nH]nc2c1N=C(c1ccccc1F)c1cc(C#N)ccc1N2 = 36 nM
O=C(O)c1ccc(-c2ccc(C(=O)O)cc2I)c(I)c1 = > 100000 nM
C[C@@]1(c2ncncc2F)NC(=O)c2cc(-c3cn[nH]c3)ccc21 = 4450 nM
COC(=O)[C@@H](Cc1c[nH]c2ccccc12)NC(=O)/C=C/c1ccccc1 = 2420 nM

## Task Recorded GI50 for COc1cc(/C=C2\CC3C4CC=C5C[C@@H](N6CCCC6)CC[C@]5(C)C4CC[C@]3(C)[C@H]2OC(C)=O)ccc1OCCN1CCCCC1 (stereo not given in full) , please?
## Result 2560 nM

## Task Recorded GI50 for `COC(=O)c1c2c(c(C)[n+]([O-])c1C)C(=O)C(NCc1cccc(OC)c1)=CC2=O` , please?
## Result 3030 nM

## Task Recorded GI50 for CC(C)=CCC/C(C)=C/CC/C(=C/COP(=O)(OCc1ccc([N+](=O)[O-])o1)N(C)CCCCCl)CC=C(C)C (stereo not given) , please?
## Result 12100 nM

## Task Recorded GI50 for `COc1cc(-c2nn(C(=O)NS(=O)(=O)c3ccc(C)cc3)cc2-c2ccncc2)ccc1Cl` , please?
## Result 1690 nM

## Task Recorded GI50 for `CCn1c(-c2nonc2N)nc2c(C#CC(C)(C)O)nc(O[C@@H](CN)c3ccccc3)cc21` , please?
## Result 122 nM

## Task Recorded GI50 for `O=C(NCCCNC(=O)OCc1ccc2c(Br)cc(Br)c(O)c2n1)OCc1ccc2c(Br)cc(Br)c(O)c2n1` , please?
## Result > 100000 nM

## Task Recorded GI50 for `O=C(Nc1cccc(C(F)(F)F)c1)c1cccc(NC2=C(Cl)C(=O)N(Cc3ccccc3)C2=O)c1` , please?
## Result 57300 nM

---

System: OVCAR-8 ovarian
Assay Text: NCI tumour cell line growth inhibition, 48 h
Quantity Kind: TGI

COC1(OC)CC2C(=O)N(Cc3ccccc3)C1CC2S(=O)(=O)c1ccccc1 (centres undefined) = > 100 µM
O=C1NC(=O)C2(CCC(O)C2)c2cc[n+]([O-])cc21 (centres undefined) = > 100 µM
CCOC(=O)N1c2ccccc2S(=O)(=O)c2ccccc21 = > 100 µM
CS(=O)(=O)c1[nH]nc2[nH]c(=O)[nH]c(=O)c12 = > 10 µM
CC(F)(F)c1cc(F)ccc1-c1sc2cc(O)ccc2c1Oc1ccc(/C=C/C(=O)O)cc1 = 69.1 µM

## Task Recorded TGI for C[C@H]1CCC/C=C/[C@@H]2C[C@H](O)C[C@H]2[C@H](O)[C@@H](S(=O)CCN)CC(=O)O1 (some centres undefined) , please?
## Result 0.154 µM

## Task Recorded TGI for `c1ccc2c[n+](CCCCCCCCCC[n+]3ccc4ccccc4c3)ccc2c1` , please?
## Result > 10 µM

## Task Recorded TGI for `NS(=O)(=O)c1ccc(NC(=O)CC(=O)Nc2ccc(S(N)(=O)=O)cc2)cc1` , please?
## Result > 100 µM

## Task Recorded TGI for CCCCCCCCCCCCOC1C(C(COC2OC(C(O)CN3CCCCC3)C3OC(C)(C)OC23)NC(=O)Nc2ccccc2)OC2OC(C)(C)OC21 (centres undefined) , please?
## Result 39.7 µM

---

Tested on: COLO 205 colon
Assay Text: NCI tumour cell line growth inhibition, 48 h; in the data active = GI50 below about 0.43 µM; inactive = the rest
Can you answer with just one of these options? Yes = active, No = inactive

Example cases with answers are listed next.
COc1cnc2c(c1)C(=O)c1c-2n(CCCN2CCNCC2)c(=O)c2cc(Cl)ccc12 = No
CC1CCC2C(C)C3C(CC4C5CC=C6CC(OC7OC(CO)C(O)C(OC8OC(CO)C(O)C(O)C8O)C7OC7OC(C)C(O)C(O)C7O)CCC6(C)C5CCC43C)N2C1 (centres undefined) = No
COC(=O)[C@@H](Cc1c[nH]c2ccccc12)NC(=O)/C=C/c1ccccc1 = No
O=C(NCCN1CCOCC1)Nc1ccc(-c2cc3c(Nc4ccc(Oc5cccc(C(F)(F)F)c5)c(Cl)c4)ncnc3s2)cc1 = No
COc1ccc(NC(=O)c2sc3nc(C)c(C(O)c4ccc(OC)cc4)cc3c2N)cc1 (centres undefined) = No
NC(N)=N/N=C/c1cccc(Cl)c1Cl = No
COc1cccc(Cn2cc3c(c2)-c2oncc2CC3)c1 = Yes
COC(=O)c1c2c(c(C)[n+]([O-])c1C)C(=O)C(NCc1cccc(OC)c1)=CC2=O = No

## Task Short answer needed: outcome of this test for `C=CC[Se]C(=O)Cc1c(C)n(C(=O)c2ccc(Cl)cc2)c2ccc(OC)cc12` ?
## Result No

---

Tested on: UACC-62 melanoma
Assay Text: NCI tumour cell line growth inhibition, 48 h
Classify as follows. Reported TGI greater than or equal to 30 µM: True. Reported TGI below: False.

Example cases with answers are listed next.
Cc1c2ncccc2nc2[nH]c3ccc(OCCN(C)C)cc3c12 = True
C=C1CC2(OC1=O)c1ccccc1C=Cc1ccccc12 = False
COc1ccccc1CNC(=O)C1c2ccccc2C(=O)N(CC(C)C)C1c1cccs1 (stereo unspecified) = True

## Task Hi, just wondering whether `CCOC(=O)CC1=NC(=Nc2cc(Cl)ccc2Cl)SC1` shows TGI of 30 µM or higher.
## Result True

## Task Hi, just wondering whether `CCCCCCNC(=O)Oc1ccc(/C(=C(\C)c2ccccc2)c2ccc(OCCN3CCCCC3)cc2)cc1` shows TGI of 30 µM or higher.
## Result False

---

Test system: RXF 393 renal
Assay Text: NCI tumour cell line growth inhibition, 48 h
Quantity Kind: GI50

COc1cc(-c2nn(C(=O)NS(=O)(=O)c3ccc(C)cc3)cc2-c2ccncc2)ccc1Cl = 2670 nM
CCOC(=O)CNC(=O)CCCn1c(=O)c2c3ccccc3n(C)c2n2nnc(-c3ccccc3)c12 = 1330 nM
CC[C@@H](C)[C@H]([C@H](CC(=O)N1CCC[C@@H]1[C@@H](OC)[C@H](C)C(=O)N[C@H](Cc1ccccc1)c1nccs1)OC)N(C)C(=O)[C@H](NC(=O)[C@@H](C(C)C)N(C)C)C(C)C = 17.9 nM
NC(N)=N/N=C/c1cccc(Cl)c1Cl = 4750 nM
C[C@@]1(c2ncncc2F)NC(=O)c2cc(-c3cn[nH]c3)ccc21 = 15200 nM
O=C1C=CN(C2OC(CO)C(O)C2O)C(=O)C1 (centres undefined) = 514000 nM
CS(=O)c1ccc(-c2nc(-c3ccc(F)cc3)c(-c3ccncc3)[nH]2)cc1 (centres undefined) = 15700 nM
CN1CCN(Cc2ccc(NC(=O)c3[nH]ncc3Nc3ncnc4sccc34)cc2)CC1 = 171 nM

## Task API: value(readout= GI50, system= RXF 393 renal, query= COc1ccc(NC(=O)c2sc3nc(C)c(C(O)c4ccc(OC)cc4)cc3c2N)cc1 (centres undefined) )
## Result 411 nM

Data credit: PubChem BioAssay (NCI)
